# Assay system: human CB1 receptor (CNR1) (Homo sapiens (Human))
# Sequence (P21554 whole entry): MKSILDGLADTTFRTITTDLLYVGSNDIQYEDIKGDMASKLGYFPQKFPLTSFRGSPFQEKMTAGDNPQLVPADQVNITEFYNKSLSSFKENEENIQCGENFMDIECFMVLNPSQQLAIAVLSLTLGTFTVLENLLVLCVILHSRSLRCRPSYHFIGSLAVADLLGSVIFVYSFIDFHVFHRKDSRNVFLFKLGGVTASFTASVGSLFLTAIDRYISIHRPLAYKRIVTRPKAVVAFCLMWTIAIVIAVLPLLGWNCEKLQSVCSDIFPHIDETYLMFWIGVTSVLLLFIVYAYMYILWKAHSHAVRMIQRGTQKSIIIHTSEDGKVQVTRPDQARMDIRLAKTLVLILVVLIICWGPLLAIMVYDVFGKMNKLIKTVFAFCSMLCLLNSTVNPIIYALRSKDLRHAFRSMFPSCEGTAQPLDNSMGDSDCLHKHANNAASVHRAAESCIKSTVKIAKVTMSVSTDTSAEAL
# Test method notes: Radioligand binding assay ([3H]-CP-55,940), membranes of HEK cells expressing human CNR1
# Measurement conditions: 1.5 nM [3H]-CP-55,940, HEK cell membranes, 1 h at 30° C.
pKi: −log10 of the molar value.
Label Criterion met when pKi is at or above 6; otherwise label Criterion not met.

Does CSSC1CCN(c2nc(C(F)(F)c3ccccc3)nc3c2nnn3Cc2ccccc2Cl)C1 (stereo not drawn) have a reported pKi of at least 6?
Criterion not met

Given Cc1nonc1Cn1nnc2c(N3CCC(N=C=S)C3)nc(C(C)(C)C)nc21 (stereo not drawn) , state whether its pKi is at least 6.
Criterion not met

Is pKi at least 6? Consider `CC(C)(C)c1nc(N2CCC(F)(F)C2)c2nnn(Cc3ccccc3CS(=O)(=O)F)c2n1`
Criterion not met

Reported pKi reaches at least 6 for Cc1nonc1Cn1nnc2c(N3CC[C@H](S)C3)nc(C(C)(C)C)nc21 (single isomer, unassigned) ?
Criterion not met

Reported pKi reaches at least 6 for `CC(C)(C)c1nc(N2CCC(F)(F)C2)c2nnn(Cc3ccccc3CCSSCCN)c2n1` ?
Criterion met

Hi team, for `CC(C)(C)c1nc(N2CCC(F)(F)C2)c2nnn(Cc3ccccc3CN=C=S)c2n1` , is the recorded pKi at or above 6?
Criterion not met

Hi team, for `CC(C)(C)c1nc(N2CCC(F)(F)C2)c2nnn(Cc3ccccc3SSCCO)c2n1` , is the recorded pKi at or above 6?
Criterion met

# bool: pKi of `NCCSSCCc1ccccc1Cn1nnc2c(N3CCC(F)(F)C3)nc(C(F)(F)c3ccccc3)nc21` >= 6
Criterion met

Does the reported pKi for CC(C)(C)c1nc(N2CCC(N=[N+]=[N-])C2)c2nnn(Cc3ccccc3Cl)c2n1 (stereo not drawn) fall at or above the 6 mark?
Criterion not met

Identify whether the reported pKi of the following compound is 6 or greater: CC(C)(C)c1nc(N2CCC(F)(F)C2)c2nnn(Cc3ccccc3CCSSCC(O)CO)c2n1 (stereo not drawn)
Criterion met

Please tell me: is the compound FC(F)(c1ccccc1)c1nc(N2CCC(N=C=S)C2)c2nnn(Cc3ccccc3Cl)c2n1 (stereo not drawn) at or over 6 in terms of pKi?
Criterion not met

Confirm if pKi reported for the compound CC(C)(C)c1nc(N2CC[C@H](S)C2)c2nnn(Cc3ccccc3Cl)c2n1 (single isomer, unassigned) is 6 or above.
Criterion not met

Dear colleague, could you confirm whether `CC(C)(C)c1nc(N2CCC(F)(F)C2)c2nnn(Cc3ccccc3CCSSCCO)c2n1` has pKi at or above 6?
Criterion met

I'd appreciate it if you could say whether `FC1(F)CCN(c2nc(C(F)(F)c3ccccc3)nc3c2nnn3Cc2ccccc2CCSSc2ccccn2)C1` has pKi at least equal to 6.
Criterion not met

Please indicate if the recorded pKi for `C#Cc1cccc(S(=O)(=O)F)c1Cn1nnc2c(N3CCC(F)(F)C3)nc(C(C)(C)C)nc21` meets or exceeds 6.
Criterion met

Please check the record `CC(C)(C)c1nc(N2CCC(F)(F)C2)c2nnn(Cc3ccccc3CCS(=O)(=O)n3nnc4ccccc43)c2n1` and state if its pKi is at or above 6.
Criterion not met

Test whether the compound `CC(C)(C)c1nc(N2CC[C@H](O)C2)c2nnn(Cc3ccccc3CN=C=S)c2n1` records pKi of 6 or higher.
Criterion not met

Please indicate if the recorded pKi for [N-]=[N+]=NC1CCN(c2nc(C(F)(F)c3ccccc3)nc3c2nnn3Cc2ccccc2Cl)C1 (stereo not drawn) meets or exceeds 6.
Criterion not met

Dear colleague, could you confirm whether `O=S(=O)(F)c1ccccc1Cn1nnc2c(N3CC[C@H](O)C3)nc(C(F)(F)c3ccccc3)nc21` has pKi at or above 6?
Criterion not met

Entry CSSC1CCN(c2nc(C(F)(F)c3ccccc3)nc3c2nnn3Cc2nonc2C)C1 (stereo not drawn) : is its pKi no less than 6?
Criterion not met

Identify whether the reported pKi of the following compound is 6 or greater: `CC(C)(C)c1nc(N2CC[C@H](O)C2)c2nnn(Cc3ccccc3CS(=O)(=O)F)c2n1`
Criterion not met

Hi, just wondering whether `CC(C)(C)c1nc(N2CCC(F)(F)C2)c2nnn(Cc3ccccc3N=C=S)c2n1` shows pKi of 6 or higher.
Criterion not met

Could you verify whether the entry Cc1nonc1Cn1nnc2c(N3CCC(N=[N+]=[N-])C3)nc(C(F)(F)c3ccccc3)nc21 (stereo not drawn) shows pKi of no less than 6?
Criterion not met

Confirm if pKi reported for the compound `CC(C)(C)c1nc(N2CC(S)C2)c2nnn(Cc3ccccc3Cl)c2n1` is 6 or above.
Criterion not met

Hi, just wondering whether `O=S(=O)(F)c1ccccc1Cn1nnc2c(N3CCC(F)(F)C3)nc(C(F)(F)c3ccccc3)nc21` shows pKi of 6 or higher.
Criterion not met
